# Measurement Parameters: 303.15 K; 101.33 kPa; Liquid; Vibrating tube method
Overview of recorded mass density for various compounds
Numeric answer only, unit kg/m3 assumed.

Worked examples follow.
Compound	Unit Annotation	mass density
CCC(C)=O [butanone]	kg/m3	794.779
CCCCNCCCC [dibutylamine]	kg/m3	751.329
CCN(CC)CC [triethylamine]	kg/m3	718.201

Exercise: What value of measured mass density is listed for CCCNCCC [dipropylamine] ?
Solution: 729.087

----------
# Measurement Parameters: 293.15 K; 101.33 kPa; Liquid; Vibrating tube method
Property Name: mass density (kg/m3)
Numeric answer only, unit kg/m3 assumed.

Worked examples follow.
Compound String	Unit Annotation	Reported Result
CCN(CC)CC	kg/m3	727.515
CCC(C)=O	kg/m3	805.351
CCCNCCC	kg/m3	738.188

Exercise: What value of measured mass density is listed for CCCCNCCCC ?
Solution: 759.571
